For each entry below, report its GI50 value.
test system: HT1080 (human fibrosarcoma cells); assay: MTT cancer cell growth inhibition; format: cell-based; conditions: Homo sapiens, HT-1080, 72 h, HT1080 cells, MTT, 72 hours incubation; read-out: GI50 HT1
Numbers only, in nM.

Example results:
MOLECULE: C/C=C1\NC(=O)c2cc(SC)cc(n2)CNC(=O)C[C@@H](/C=C/CCS)OC(=O)[C@H](CC)NC1=O [Compound 230]
READING_UNIT: nM
GI50: 20

MOLECULE: C=C1NC(=O)c2cccc(n2)CNC(=O)C[C@@H](/C=C/CCSC(=O)CCCCCCC)OC(=O)[C@H](C(C)C)NC1=O [Compound 244]
READING_UNIT: nM
GI50: 760

MOLECULE: C/C=C1\NC(=O)c2cc(SCCC)cc(n2)CNC(=O)C[C@@H](/C=C/CCSC(=O)CCCCCCC)OC(=O)[C@H](CC)NC1=O [Compound 175]
READING_UNIT: nM
GI50: 50

MOLECULE: C/C=C1\NC(=O)c2nc(ccc2SC)CNC(=O)C[C@@H](/C=C/CCSC(C)=O)OC(=O)[C@H](C(C)C)NC1=O [Compound 165]
READING_UNIT: nM
GI50: 60

MOLECULE: C=C1NC(=O)c2nc(ccc2SC)CNC(=O)C[C@@H](/C=C/CCSC(C)=O)OC(=O)[C@H](C(C)C)NC1=O [Compound 204]
READING_UNIT: nM
GI50: 30

Here is the next item to consider.
Challenge: Item: C/C=C1\NC(=O)c2cc(SC)cc(n2)CNC(=O)C[C@@H](/C=C/CCSC(=O)CCC)OC(=O)[C@H](C(C)C)NC1=O [Compound 160] Test system: HT1080 (human fibrosarcoma cells) Read-out: GI50 Value: ?
Response given: 40

---

system: H1975 (non-small cell lung adenocarcinoma); test: MTT cancer cell growth inhibition; type: cell-based; conditions: Homo sapiens, NCI-H1975, 72 h, MTT, 72 hours incubation, H1975 cells; read-out: GI50 H1975
GI50 strictly less than 60 nM = y. Otherwise n.

SMILES_NOTATION: C/C=C1\NC(=O)c2nc(ccc2SC)CNC(=O)C[C@@H](/C=C/CCSC(C)=O)OC(=O)[C@H](Cc2ccc(O)cc2)NC1=O
CLASS: n

SMILES_NOTATION: C/C=C1\NC(=O)c2cccc(n2)CNC(=O)C[C@@H](/C=C/CCSC(=O)CCCCCCC)OC(=O)[C@H](c2ccc(O)cc2)NC1=O
CLASS: n

SMILES_NOTATION: C/C=C1\NC(=O)c2cc(SC)cc(n2)CNC(=O)C[C@@H](/C=C/CCSC(=O)CCCCCC)OC(=O)[C@H](C(C)C)NC1=O
CLASS: y

Challenge: Field: below-cutoff. Rule: recorded GI50 strictly less than 60 nM. Subject: `C/C=C1\NC(=O)c2cc(F)cc(n2)CNC(=O)C[C@@H](/C=C/CCSC(=O)CCCC)OC(=O)[C@H](C(C)C)NC1=O`
Response given: y

Challenge: Moving on to the next molecule: `C/C=C1\NC(=O)c2nccc(n2)CNC(=O)C[C@@H](/C=C/CCSC(C)=O)OC(=O)[C@H](C)NC1=O`
Response given: y

Challenge: What do you have for `C/C=C1\NC(=O)c2ccc(F)c(n2)CCNC(=O)C[C@@H](/C=C/CCSC(C)=O)OC(=O)[C@H](C(C)C)NC1=O` ?
Response given: n

Challenge: Same read-out for `C/C=C1\NC(=O)c2cc(SC)cc(n2)CNC(=O)C[C@@H](/C=C/CCSC(C)=O)OC(=O)[C@H](CCCCNC(=O)OCC2c3ccccc3-c3ccccc32)NC1=O` ?
Response given: n

Challenge: What do you have for `C/C=C1\NC(=O)c2cc(C)cc(n2)CNC(=O)C[C@@H](/C=C/CCSC(C)=O)OC(=O)[C@H](Cc2ccccc2)NC1=O` ?
Response given: y

Challenge: What about this molecule? `CSc1cc2nc(c1)C(=O)NC(=C(C)C)C(=O)N[C@@H](C(C)C)C(=O)O[C@H](/C=C/CCSC(C)=O)CC(=O)NC2`
Response given: y

Challenge: Quick one: `C=C1NC(=O)c2ccc(F)c(n2)CNC(=O)C[C@@H](/C=C/CCS)OC(=O)[C@H](C(C)C)NC1=O`
Response given: y

Challenge: Please do the same for `C/C=C1\NC(=O)c2ccc(F)c(n2)CNC(=O)C[C@@H](/C=C/CCSC(=O)CCCCC)OC(=O)[C@H](C(C)C)NC1=O` as well.
Response given: y

Challenge: Please do the same for `C/C=C1\NC(=O)c2nc(ccc2F)CNC(=O)C[C@@H](/C=C/CCSC(C)=O)OC(=O)[C@H](CCCCNC(=O)OCC2c3ccccc3-c3ccccc32)NC1=O` as well.
Response given: y

Challenge: Try `C/C=C1\NC(=O)c2ccc(F)c(n2)CNC(=O)C[C@@H](/C=C/CCSC(C)=O)OC(=O)[C@H](CCCCN)NC1=O` next.
Response given: y

---

Hi there, I'd appreciate the recorded GI50 for every entry that follows.
System: A549 (human lung cancer cells)
Assay: MTT cancer cell growth inhibition
Assay type: cell-based
Conditions: Homo sapiens, A549, 72 h, MTT, 72 hours incubation; read-out: GI50 A54
Description: MTT assay principle is yellow MTT can penetrate membrane into the cell, succinic dehydrogenase of the mitochondria in living cells can make exogenous MTT reduction of insoluble in water of blue-violet acicular formazan for crystallization and deposition in the cell, crystallization can be dissolved dimethyl sulfoxide (DMSO) solution, detected its absorbance at 490 nm/570 nm wavelength by enzyme-linked immunosorbent assay, which can reflect the number of cells. […] e) 570 nm readings. […]
Give bare numbers, in nM.

COMPOUND: C/C=C1\NC(=O)c2cccc(n2)CNC(=O)C[C@@H](/C=C/CCSC(C)=O)OC(=O)[C@H](C)NC1=O [Compound 12]
GI50 / nM: 70
--
COMPOUND: C/C=C1\NC(=O)c2ccc(C)c(n2)CNC(=O)C[C@@H](/C=C/CCSC(C)=O)OC(=O)[C@H](Cc2ccccc2)NC1=O [Example 68]
GI50 / nM: 20
--
COMPOUND: C/C=C1\NC(=O)c2nc(ccc2F)CCNC(=O)C[C@@H](/C=C/CCSC(C)=O)OC(=O)[C@H](C(C)C)NC1=O [Compound 103]
GI50 / nM: 40
--
COMPOUND: C/C=C1\NC(=O)c2cc(F)cc(n2)CNC(=O)C[C@@H](/C=C/CCSC=O)OC(=O)[C@H](C(C)C)NC1=O [Compound 52]
GI50 / nM: 50
--
COMPOUND: C/C=C1\NC(=O)c2cc(F)cc(n2)CNC(=O)C[C@@H](/C=C/CCS)OC(=O)[C@H](CCCCNC(=O)OCC2c3ccccc3-c3ccccc32)NC1=O [Compound 121]
GI50 / nM: 210
--
COMPOUND: C/C=C1\NC(=O)c2nc(ccc2F)CNC(=O)C[C@@H](/C=C/CCS)OC(=O)[C@H](C)NC1=O [Compound 112]
GI50 / nM: 60
--
COMPOUND: C/C=C1\NC(=O)c2nc(ccc2F)CNC(=O)C[C@@H](/C=C/CCSC(=O)CC)OC(=O)[C@H](C(C)C)NC1=O [Example 45]
GI50 / nM: 40
--
COMPOUND: C/C=C1\NC(=O)c2ccc(F)c(n2)CNC(=O)C[C@@H](/C=C/CCSC(C)=O)OC(=O)[C@H](C)NC1=O [Example 65]
GI50 / nM: 70

For every item below, please supply its GI50.
1. C/C=C1\NC(=O)c2ccc(F)c(n2)CNC(=O)C[C@@H](/C=C/CCSC(=O)CCCCCCC)OC(=O)[C@H](C(C)C)NC1=O [Example 32]
2. C/C=C1\NC(=O)c2cc(F)cc(n2)CNC(=O)C[C@@H](/C=C/CCSC(=O)CCCC)OC(=O)[C@H](C(C)C)NC1=O [Compound 40]
3. C=C1NC(=O)c2cccc(n2)CNC(=O)C[C@@H](/C=C/CCSC(C)=O)OC(=O)[C@H](C)NC1=O [Example 21]
4. C/C=C1\NC(=O)c2cccc(n2)CNC(=O)C[C@@H](/C=C/CCSC(=O)CCC)OC(=O)[C@H](C(C)C)NC1=O [Compound 5]

Response given:
[40, 40, 330, 50]

Below are some compounds; for each one, tell me its GI50.
1. C/C=C1\NC(=O)c2cc(F)cc(n2)CNC(=O)C[C@@H](/C=C/CCSC(C)=O)OC(=O)[C@H](CCCCNC(=O)OCC2c3ccccc3-c3ccccc32)NC1=O [Compound 76]
2. C/C=C1\NC(=O)c2cccc(n2)CCNC(=O)C[C@@H](/C=C/CCS)OC(=O)[C@H](C(C)C)NC1=O [Compound 146]
3. C/C=C1\NC(=O)c2nc(ccc2F)CNC(=O)C[C@@H](/C=C/CCSC(=O)CCCCCCC)OC(=O)[C@H](Cc2ccccc2)NC1=O [Example 69]
4. C/C=C1\NC(=O)c2cc(F)cc(n2)CNC(=O)C[C@@H](/C=C/CCS)OC(=O)[C@H](C(C)C)NC1=O [Compound 107]
5. C/C=C1\NC(=O)c2cccc(n2)CNC(=O)C[C@@H](/C=C/CCSC(C)=O)OC(=O)[C@H](CC)NC1=O [Compound 10]
6. C/C=C1\NC(=O)c2nc(ccc2F)CNC(=O)C[C@@H](/C=C/CCS)OC(=O)[C@H](CC)NC1=O [Compound 109]
7. C/C=C1\NC(=O)c2cccc(n2)CNC(=O)C[C@@H](/C=C/CCSC(=O)CCCCCC)OC(=O)[C@H](C(C)C)NC1=O [Compound 2]

Response given:
50
30
30
40
60
50
40
